experimental-system: Cytochrome P450 2D6 (Homo sapiens)
protocol-description: Cytochrome panel assay with activity outcomes
particulars: recombinant CYP, pro-luciferin dealkylation, luminescence, p450-cyp2d6; series mostly up to 57.1 µM
Description: The P450 gene superfamily is involved in the metabolism and clearance of xenobiotics. This assay used various human CYP P450 isozymes to measure the dealkylation of various pro-luciferin substrates to luciferin. The luciferin is then measured by luminescence after the addition of a luciferase detection reagent. […] Inhibitors and some substrates limit the production of luciferin, and decrease measured luminescence. […] 8, Detection, 1 sec, ViewLux luminescent read […]
Hit rate of the full screen: of about 16,000 compounds, about 2,600 (16%) were called active. Inconclusive results (about 20%) are left out. The call rests on the fitted dose curve; in most records, active means well fitted curve in the direction sought with a large enough effect; inconclusive means small, poorly fitted or top-dose-only effect, or effect the other way; inactive means no such curve, though single readings can be large or run the other way. The list is a sample of the results.
Outcome codes: yes (1) = active, no (0) = inactive

>  <compound>
COC(=O)CCC(=O)Nc1cccc2ccccc12

>  <experimental-system>
Cytochrome P450 2D6 (Homo sapiens)

>  <label-value>
no (0)

$$$$
>  <compound>
CCN1C(=O)C=CC1=O

>  <experimental-system>
Cytochrome P450 2D6 (Homo sapiens)

>  <label-value>
no (0)

$$$$
>  <compound>
CCCN(CCC)CCNC(=O)C1CCCN(S(=O)(=O)c2ccc3c(c2)oc(=O)n3C)C1 (stereo not drawn)

>  <experimental-system>
Cytochrome P450 2D6 (Homo sapiens)

>  <label-value>
no (0)

$$$$
>  <compound>
CCCS(=O)(=O)N1CCCC(C(=O)N2CCN(c3ccccc3)CC2)C1 (stereo not drawn)

>  <experimental-system>
Cytochrome P450 2D6 (Homo sapiens)

>  <label-value>
no (0)

$$$$
>  <compound>
Cc1ccc(-c2cc(C(=O)NN=C3CCCC3)c3ccccc3n2)cc1

>  <experimental-system>
Cytochrome P450 2D6 (Homo sapiens)

>  <label-value>
no (0)

$$$$
>  <compound>
O=c1c(-c2ccc(O)cc2)coc2cc(O)cc(O)c12

>  <experimental-system>
Cytochrome P450 2D6 (Homo sapiens)

>  <label-value>
no (0)

$$$$
>  <compound>
COc1ccc(-c2cc(=O)c3c(O)cc(O)cc3o2)cc1

>  <experimental-system>
Cytochrome P450 2D6 (Homo sapiens)

>  <label-value>
yes (1)

$$$$
>  <compound>
O=C1c2ccc3c4c(ccc(c24)C(=O)N1c1ccc2ccccc2c1)CC3

>  <experimental-system>
Cytochrome P450 2D6 (Homo sapiens)

>  <label-value>
no (0)

$$$$
>  <compound>
NNc1nncc2ccccc12

>  <experimental-system>
Cytochrome P450 2D6 (Homo sapiens)

>  <label-value>
no (0)

$$$$
>  <compound>
Cc1cccc(NC(=O)CCS(=O)(=O)c2cccc3nsnc23)c1C

>  <experimental-system>
Cytochrome P450 2D6 (Homo sapiens)

>  <label-value>
no (0)

$$$$
>  <compound>
COc1ccc(-c2coc3cc4oc(=O)cc(C)c4cc23)cc1F

>  <experimental-system>
Cytochrome P450 2D6 (Homo sapiens)

>  <label-value>
no (0)

$$$$
>  <compound>
O=c1cc(-c2ccccc2)oc2cc(O)c(O)c(O)c12

>  <experimental-system>
Cytochrome P450 2D6 (Homo sapiens)

>  <label-value>
no (0)

$$$$
>  <compound>
CCCNC(=O)Nc1ccc2c(c1)nc(C)n2C

>  <experimental-system>
Cytochrome P450 2D6 (Homo sapiens)

>  <label-value>
no (0)

$$$$
>  <compound>
N#Cc1cccc(NC(=O)N2CCC3(CC2)CCN(C(=O)c2ccco2)CC3)c1

>  <experimental-system>
Cytochrome P450 2D6 (Homo sapiens)

>  <label-value>
no (0)

$$$$
>  <compound>
CCCS(=O)(=O)N1CCCC(C(=O)NCCN2CCOCC2)C1 (stereo not drawn)

>  <experimental-system>
Cytochrome P450 2D6 (Homo sapiens)

>  <label-value>
no (0)

$$$$
>  <compound>
O=C(CO)N/N=C/c1ccccc1F

>  <experimental-system>
Cytochrome P450 2D6 (Homo sapiens)

>  <label-value>
no (0)

$$$$
>  <compound>
O=C(NCCCN1CCN(c2cccc(Cl)c2)CC1)C1CCC(=O)N1Cc1ccccc1Cl (stereo not drawn)

>  <experimental-system>
Cytochrome P450 2D6 (Homo sapiens)

>  <label-value>
yes (1)

$$$$
>  <compound>
O=C(NCC1CCCO1)c1nn2c(c1Cl)NC(c1ccc(F)cc1)CC2C(F)(F)F (stereo not drawn)

>  <experimental-system>
Cytochrome P450 2D6 (Homo sapiens)

>  <label-value>
no (0)

$$$$
>  <compound>
CCc1cc2c(nc1CC)CCN(CC/C(C)=N/O[C@@H]1O[C@H](COC(C)=O)[C@H](OC(C)=O)[C@H](OC(C)=O)[C@H]1OC(C)=O)C2

>  <experimental-system>
Cytochrome P450 2D6 (Homo sapiens)

>  <label-value>
yes (1)

$$$$
>  <compound>
O=C(c1ccc2c(c1)N(Cc1ccc(F)cc1)C(=O)CS2)N1CCOCC1

>  <experimental-system>
Cytochrome P450 2D6 (Homo sapiens)

>  <label-value>
no (0)

$$$$
>  <compound>
Cn1c(=O)n(CCC(=O)O)c2ccccc21

>  <experimental-system>
Cytochrome P450 2D6 (Homo sapiens)

>  <label-value>
no (0)

$$$$
>  <compound>
COc1ccc(-c2coc3cc(OC)cc(O)c3c2=O)cc1

>  <experimental-system>
Cytochrome P450 2D6 (Homo sapiens)

>  <label-value>
yes (1)

$$$$
>  <compound>
C=CCn1c(SCC(=O)NC2CCCCC2)nnc1C1CCCCC1

>  <experimental-system>
Cytochrome P450 2D6 (Homo sapiens)

>  <label-value>
no (0)

$$$$
